- System: KRas-mediated phosphorylation of ERK in H460 cells
- procedure.summary: Inhibition of KRas-mediated phosphorylation of ERK (Cisbio HTRF pERK), H460 cells
- Type: cell-based
- measurement.context: Homo sapiens, NCI-H460, HTRF pERK
assay.metric: log10 IC50 (log10 of the value in nM)
In plain terms, each number is the log10 of measured IC50 in nM.

Query: Fill in: log10 IC50 of CCc1c(F)ccc2cc(O)cc(-c3ncc4c(N5CCC(O)c6nn(C(=O)N(C)C)cc6C5)nc(OC[C@@]56CCCN5C[C@H](F)C6)nc4c3F)c12 (stereo partly drawn) is ___
Response: 1.84

Query: Fill in: log10 IC50 of CCCCN(C)C(=O)OC[C@@H]1CC[C@@]2(COc3nc(N4CCC[C@@](C)(O)C4)c4cnc(-c5cc(O)cc6ccc(F)c(CC)c56)c(F)c4n3)CCCN12 is ___
Response: 1.32

Query: Fill in: log10 IC50 of CCc1c(F)ccc2cc(O)cc(-c3ncc4c(N5CCC[C@@](C)(O)C5)nc(OC[C@@]56CCCN5CC(=C(F)F)C6)nc4c3F)c12 (single isomer, unassigned) is ___
Response: 0.70

Query: Fill in: log10 IC50 of C[C@@]1(O)CCCN(c2nc(OC[C@@]34CCCN3C[C@H](F)C4)nc3c(F)c(-c4c(C5CC5)c(Cl)cc5[nH]ncc45)ncc23)C1 is ___
Response: 2.25

Query: Fill in: log10 IC50 of CCc1cccc2cc3[nH]ncc3c(-c3ncc4c(N5CCCC6(C5)NC(=O)NC6=O)nc(OC[C@@]56CCCN5C[C@H](F)C6)nc4c3F)c12 (stereo partly drawn) is ___
Response: 2.26

Shifting focus to the molecule that follows.
Query: Fill in: log10 IC50 of CCc1c(F)ccc2cc(O)cc(-c3ncc4c(N5CCCCC5)nc(OC[C@@]56CCCN5C[C@H](F)C6)nc4c3F)c12 is ___
Response: 1.98

* * *

- test.target: KRas^G12V (Homo sapiens, UniProt P01116, G12V)
- Construct: Biotinylated KRas (corresponding to amino acids 1-169, produced at Accelegan Inc.); biotin (biotinylated); purchased Accelegan Inc
- Sequence (P01116 1-169 isoform P01116-2 G12V): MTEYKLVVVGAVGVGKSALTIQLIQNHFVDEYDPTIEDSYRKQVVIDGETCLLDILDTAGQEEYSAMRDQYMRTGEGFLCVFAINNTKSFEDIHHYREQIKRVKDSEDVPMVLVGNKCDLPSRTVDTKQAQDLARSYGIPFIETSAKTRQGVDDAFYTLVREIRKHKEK
- procedure.summary: KRas binding assay (TR-FRET tracer displacement), KRas G12V
Measured IC50 by item
I only need the number, in nM, no unit after it.

Example results:
Query: Form entry - test system: KRas^G12V (Homo sapiens, UniProt P01116, G12V); read-out: IC50; molecule: CCc1c(F)ccc2cc(O)cc(-c3ncc4c(CCc5ccnn5C)nc(OC[C@@]56CCCN5C[C@H](F)C6)nc4c3F)c12 [Example 545]
Response: 431

Query: Form entry - test system: KRas^G12V (Homo sapiens, UniProt P01116, G12V); read-out: IC50; molecule: CCc1c(F)ccc2cc(O)cc(-c3ncc4c(N5C[C@@H]6[C@@H](CC#N)NC(=O)[C@@H]6C5)nc(OC[C@@]56CCCN5C[C@H](F)C6)nc4c3F)c12 [Example 606]
Response: 43

Query: Form entry - test system: KRas^G12V (Homo sapiens, UniProt P01116, G12V); read-out: IC50; molecule: CCc1c(F)ccc2cc(O)cc(-c3ncc4c(N5CC6CCC(CO)(C5)C6(F)F)nc(OC[C@@]56CCCN5C[C@H](F)C6)nc4c3F)c12 (stereo partly drawn) [Example 901]
Response: 60

Shifting focus to the molecule that follows.
Query: Form entry - test system: KRas^G12V (Homo sapiens, UniProt P01116, G12V); read-out: IC50; molecule: Nc1nc2c(-c3ncc4c(N5CCCC6(C5)NC(=O)NC6=O)nc(OCC56CCCN5CCC6)nc4c3F)ccc(F)c2s1 (stereo not drawn) [Example 736]
Response: 664
